These data points were gathered from paper PMC9482650.

Biological target: GORASP2, Q9H8Y8
Experiment: holdup assay
Parameters: key: below the threshold = too weak to quantify, mostly under pKd 3.1 to 4
Details: plain residues with an end cap or a label only (N-terminal biotin on a linker: ado-ado)
Below is a list of entries, each paired with its recorded pKd value.
Respond using a number only.

Here are 2 binders together with their reported answers.
binder="KKMLQRRTLL [OR8G1, Q15617]" observed_result=3.8
binder="SPDRDRESIV [SCN5A, Q14524]" observed_result=3.88

API: the following record is the query input.
Prompt line: Reported pKd for DFLSTFHIRI [CIB2, O75838] : what is it?
Response line: 4.46
